Molecular target: human recombinant HDAC1 (Homo sapiens, UniProt Q13547)
Sequence (Q13547 whole entry): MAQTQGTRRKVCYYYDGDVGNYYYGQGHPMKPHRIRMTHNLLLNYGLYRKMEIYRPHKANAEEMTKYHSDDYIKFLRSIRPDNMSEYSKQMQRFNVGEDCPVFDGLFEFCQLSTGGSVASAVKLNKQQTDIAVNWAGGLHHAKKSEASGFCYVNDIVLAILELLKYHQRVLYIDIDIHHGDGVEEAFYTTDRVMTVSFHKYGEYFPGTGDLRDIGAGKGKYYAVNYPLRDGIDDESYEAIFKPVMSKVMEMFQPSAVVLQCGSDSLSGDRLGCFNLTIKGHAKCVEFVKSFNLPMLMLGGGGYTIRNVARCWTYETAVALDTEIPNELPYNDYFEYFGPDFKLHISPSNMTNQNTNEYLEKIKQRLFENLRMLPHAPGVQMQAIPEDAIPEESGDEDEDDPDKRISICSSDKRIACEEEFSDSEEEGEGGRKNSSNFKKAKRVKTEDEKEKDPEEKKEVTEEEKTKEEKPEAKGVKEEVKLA
Assay: HDAC1 enzyme activity inhibition assay (in vitro, fluorimetric)
Details: human recombinant HDAC1, fluorimetric kit, 30° C. 60 minutes
pIC50: −log10 of the molar value.
ATTRIBUTE MEASURED: pIC50

CCN(CC)CC(C)NCc1cccc(C(=O)N2[C@H](C)CN(Cc3ccc(C(=O)NO)cc3)C[C@@H]2C)c1 (stereo partly drawn) | 5.25
CCCN1[C@H](C)CN(Cc2ccc(C(=O)NO)cc2)C[C@@H]1C | 4.81
COc1ccc(C(=O)N2[C@H](C)CN(Cc3ccc(C(=O)NO)cc3)C[C@@H]2C)cc1 | 5.89

A: C[C@@H]1CN(Cc2ccc(C(=O)NO)cc2)C[C@H](C)N1Cc1cccc(CN2CCOCC2)c1
B: C[C@@H]1CN(Cc2ccc(C(=O)NO)cc2)C[C@H](C)N1C(=O)c1ccc(CN2CCOCC2)cc1
C: COc1cccc(CNC(=O)N2C[C@@H](C)N(Cc3ccc(C(=O)NO)cc3)[C@@H](C)C2)c1
Ask: Thanks in advance: please rank these 3 entries by pIC50, highest to lowest. List labels; respect the requested ordering.
Reply: C, B, A

A: C[C@@H]1CN(Cc2ccc(C(=O)NO)cc2)C[C@H](C)N1C(=O)c1cccc(-c2ccco2)c1
B: C[C@@H]1CN(Cc2ccc(C(=O)NO)cc2)C[C@H](C)N1Cc1ccc(CN2CC(F)(F)C2)cc1
Ask: Given the two records A and B , choose the one whose pIC50 value is lower. // output: label of the selected item
Reply: A
(A: 5.62, B: 5.96)
